Entries and their TGI values follow.
System: A498 renal
Method summary: NCI tumour cell line growth inhibition, 48 h

Known results for compounds:
[
  {
    "Compound": "COc1ccccc1/[N+]([O-])=C/c1ccccc1OC(=S)S",
    "TGI": "> 100 µM"
  },
  {
    "Compound": "Cc1ccc2c(/C=C/C(=O)c3cc(CN4CCOCC4)c(O)c4nc(C)ccc34)cc(CN3CCOCC3)c(O)c2n1",
    "TGI": "3.37 µM"
  },
  {
    "Compound": "O=C(Oc1cccc(Nc2ncnc3ccccc23)c1)c1ccccc1Cl",
    "TGI": "49.4 µM"
  },
  {
    "Compound": "COc1cccc2c(Nc3ccc(C(=O)NCCNCCO)cc3)cc(-c3ccccc3)nc12",
    "TGI": "> 100 µM"
  },
  {
    "Compound": "Cc1nc2ccc(S(=O)(=O)Nc3ccccn3)cc2c(=O)n1NS(=O)(=O)c1ccccn1",
    "TGI": "> 100 µM"
  }
]

What is its TGI for A498 renal? Entry: "Cc1cc(Cl)ccc1NC(=O)/C(Cc1nc2ccc(C(=O)c3ccccc3)cc2[nH]c1=O)=N/NC(=O)c1ccncc1"
> 100 µM

Return TGI measured with A498 renal given this compound: "C=C[C@@]1(C)CC(=O)[C@]2(O)[C@@]3(C)[C@@H](OC(C)=O)CCC(C)(C)[C@@H]3[C@H](O)[C@H](OC(C)=O)[C@@]2(C)O1"
> 100 µM

Form field - read-out: TGI; system: A498 renal; submitted item: "COc1cc(-c2cc(C(=O)Nc3nc4ccccc4s3)nc3cc(-c4ccccc4)nn23)cc(OC)c1OC"
36.7 µM

Notebook: pull reported TGI for A498 renal, entry O=C1CC2(CCCc3sccc32)C(=O)N1 (stereo unspecified)
> 100 µM

So what TGI did "CSC1=C(C)S/C(=C\c2ccc(/C=C3\SC(C)=C(SC)S3)cc2)S1" get with A498 renal?
> 100 µM

What is its TGI for A498 renal? Entry: CC1=CCP(C(F)(F)F)P(C(F)(F)F)C1 (stereo unspecified)
> 100 µM

Any idea what TGI came out for "Cc1cc(N(CCC#N)CCC#N)ccc1N=Nc1ccccc1[N+](=O)[O-]" on A498 renal?
> 100 µM

Lab note: need TGI with A498 renal for entry "COC(=O)CC[N+]1([O-])CC1" , please look it up.
> 100 µM

Give the reported TGI for "CCNCCNc1cc(-c2ccc(Cl)cc2)c(C#N)c2nc3ccccc3n12" (system: A498 renal).
3.52 µM

Which measured TGI belongs to "O=c1ccc(-c2ccc(-n3ccnc3)cc2)nn1CCO" , tested on A498 renal?
> 100 µM

Which measured TGI belongs to "CC(C)(C)c1ccc(Oc2ccc(C#N)c(C#N)c2)c(C(C)(C)C)c1" , tested on A498 renal?
> 100 µM

What TGI appears in the records for this compound with A498 renal? "Cc1c2cc[n+](C)cc2c(C)c2c1[nH]c1ccc(OC(C)C)cc12"
> 46.8 µM

Entry O=C1NC(=O)C2=C1CCC2O (stereo unspecified) , system A498 renal: what TGI was measured?
> 100 µM

Find TGI (A498 renal) for the entry "Nc1nc(SCC(=O)O)[nH]c(=O)c1N"
> 100 µM

Can you look up TGI on A498 renal for "CN(C)c1ccc(/C=C(\NC(=O)c2ccccc2)c2nc3ccccc3c(=O)o2)cc1" ?
> 100 µM

Please state recorded TGI (tested on A498 renal) of "C[C@@H](Oc1cc(-c2cnn(C3CCNCC3)c2)cnc1N)c1c(Cl)ccc(F)c1Cl"
5.34 µM
